Hello, the source for this data is paper PMC7926627, in case you need it.

Listing of entries alongside the reported SI (3): hMAO-B selectivity index = IC50 (hMAO-A)/IC50 (hMAO-B).
Molecular target: hMAO-B (Homo sapiens)
Sequence (P27338 1-520): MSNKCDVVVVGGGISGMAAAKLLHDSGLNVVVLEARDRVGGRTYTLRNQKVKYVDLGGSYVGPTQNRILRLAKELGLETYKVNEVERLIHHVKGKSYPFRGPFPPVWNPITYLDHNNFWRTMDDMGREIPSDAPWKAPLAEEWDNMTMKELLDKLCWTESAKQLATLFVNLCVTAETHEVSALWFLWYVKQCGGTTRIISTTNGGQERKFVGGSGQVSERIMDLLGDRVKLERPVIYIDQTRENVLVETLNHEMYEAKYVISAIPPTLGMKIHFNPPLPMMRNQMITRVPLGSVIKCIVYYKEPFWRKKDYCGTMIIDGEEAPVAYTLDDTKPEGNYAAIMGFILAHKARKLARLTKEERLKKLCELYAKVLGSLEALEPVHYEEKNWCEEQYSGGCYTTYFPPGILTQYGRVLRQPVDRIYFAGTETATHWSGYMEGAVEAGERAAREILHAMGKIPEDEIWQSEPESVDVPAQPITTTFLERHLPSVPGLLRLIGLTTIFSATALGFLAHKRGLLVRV
Test: biochemical
Set-up: purchased Sigma Aldrich; host or cells: insect cells (BTI-TN-5B1-4), baculovirus
Lab note: jot down the number only; don't add units.

                          structurenotation          assayedsystem  experimentalvalue
0  O=C(/C=C/C=C/c1ccc2c(c1)OCO2)NCCCC[P+](c1ccccc1)(c1ccccc1)c1ccccc1.[Br-]  hMAO-B (Homo sapiens)               0.07
1  O=C(/C=C/C=C/c1ccc(O)c(O)c1)NCCCC[P+](c1ccccc1)(c1ccccc1)c1ccccc1.[Br-]  hMAO-B (Homo sapiens)               0.38
2  O=C(/C=C/C=C/c1ccc(O)c(O)c1)NCCCCCC[P+](c1ccccc1)(c1ccccc1)c1ccccc1.[Br-]  hMAO-B (Homo sapiens)               0.20

(Q) Give reported SI (3): hMAO-B selectivity index = IC50 (hMAO-A)/IC50 (hMAO-B) value for "O=C(/C=C/C=C/c1ccc2c(c1)OCO2)NCCCCCC[P+](c1ccccc1)(c1ccccc1)c1ccccc1.[Br-]"
(A) 0.26

----------
molecular target: hBChE (Homo sapiens, UniProt P06276, N45Q/N483Q/N509Q/N514Q); test: Recombinant hBChE inhibition, Ellman's buffer
Sequence (P06276 29-557 N45Q/N483Q/N509Q/N514Q limits assumed): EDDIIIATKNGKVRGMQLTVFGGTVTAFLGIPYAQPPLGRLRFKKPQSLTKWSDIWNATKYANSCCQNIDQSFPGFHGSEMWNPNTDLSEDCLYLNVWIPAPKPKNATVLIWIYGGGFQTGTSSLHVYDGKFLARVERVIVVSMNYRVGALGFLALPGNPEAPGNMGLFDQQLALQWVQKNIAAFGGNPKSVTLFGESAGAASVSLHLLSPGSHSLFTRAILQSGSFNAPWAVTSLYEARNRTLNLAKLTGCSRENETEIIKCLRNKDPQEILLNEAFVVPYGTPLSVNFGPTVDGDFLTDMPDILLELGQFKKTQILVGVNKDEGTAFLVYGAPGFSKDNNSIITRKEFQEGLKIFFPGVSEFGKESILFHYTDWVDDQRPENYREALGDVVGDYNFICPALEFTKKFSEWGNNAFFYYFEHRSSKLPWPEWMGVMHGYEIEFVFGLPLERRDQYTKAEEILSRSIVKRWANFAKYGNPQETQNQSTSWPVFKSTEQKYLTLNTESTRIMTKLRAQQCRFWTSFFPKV
Listing of entries alongside the reported IC50.

(Q) Give reported IC50 value for "O=C(/C=C/C=C/c1ccc2c(c1)OCO2)NCCCCCC[P+](c1ccccc1)(c1ccccc1)c1ccccc1.[Br-]"
(A) 3 µM

(Q) Give reported IC50 value for "O=C(/C=C/C=C/c1ccc(O)c(O)c1)NCCCC[P+](c1ccccc1)(c1ccccc1)c1ccccc1.[Br-]"
(A) 3 µM

(Q) Give reported IC50 value for "O=C(/C=C/C=C/c1ccc(O)c(O)c1)NCCCCCC[P+](c1ccccc1)(c1ccccc1)c1ccccc1.[Br-]"
(A) 23 µM

(Q) Give reported IC50 value for "O=C(/C=C/C=C/c1ccc2c(c1)OCO2)NCCCC[P+](c1ccccc1)(c1ccccc1)c1ccccc1.[Br-]"
(A) 0.2 µM

----------
tested on: differentiated SH-SY5Y cells; assay: Neutral red (NR) uptake assay (cytotoxicity); format: cell-based, human; conditions: 24 h, increasing concentrations up to 100 µM
metric: effect on NR uptake

A selection of reference data follows.
>>> df
                                   compound               metric        experimentalvalue
0  O=C(/C=C/C=C/c1ccc(O)c(O)c1)NCCCC[P+](c1ccccc1)(c1ccccc1)c1ccccc1.[Br-] [Compound 4]  effect on NR uptake        remained constant
1  O=C(/C=C/C=C/c1ccc(O)c(O)c1)NCCCCCC[P+](c1ccccc1)(c1ccccc1)c1ccccc1.[Br-] [Compound 5]  effect on NR uptake        remained constant
2  O=C(/C=C/c1ccc(O)c(O)c1)NCCCCCCCC[P+](c1ccccc1)(c1ccccc1)c1ccccc1 [AntiOXCIN3, reference compound]  effect on NR uptake  did not markedly affect
3  O=C(/C=C/C=C/c1ccc2c(c1)OCO2)NCCCC[P+](c1ccccc1)(c1ccccc1)c1ccccc1.[Br-] [Compound 2]  effect on NR uptake        remained constant

--- query ---
(Q) Give reported effect on NR uptake value for O=C(/C=C/c1ccc(O)c(O)c1)NCCCCCC[P+](c1ccccc1)(c1ccccc1)c1ccccc1 [AntiOXCIN2, reference compound]
(A) did not markedly affect
